Target: mouse P-gp (Mus musculus, UniProt P21447)
Sequence (P21447 whole entry): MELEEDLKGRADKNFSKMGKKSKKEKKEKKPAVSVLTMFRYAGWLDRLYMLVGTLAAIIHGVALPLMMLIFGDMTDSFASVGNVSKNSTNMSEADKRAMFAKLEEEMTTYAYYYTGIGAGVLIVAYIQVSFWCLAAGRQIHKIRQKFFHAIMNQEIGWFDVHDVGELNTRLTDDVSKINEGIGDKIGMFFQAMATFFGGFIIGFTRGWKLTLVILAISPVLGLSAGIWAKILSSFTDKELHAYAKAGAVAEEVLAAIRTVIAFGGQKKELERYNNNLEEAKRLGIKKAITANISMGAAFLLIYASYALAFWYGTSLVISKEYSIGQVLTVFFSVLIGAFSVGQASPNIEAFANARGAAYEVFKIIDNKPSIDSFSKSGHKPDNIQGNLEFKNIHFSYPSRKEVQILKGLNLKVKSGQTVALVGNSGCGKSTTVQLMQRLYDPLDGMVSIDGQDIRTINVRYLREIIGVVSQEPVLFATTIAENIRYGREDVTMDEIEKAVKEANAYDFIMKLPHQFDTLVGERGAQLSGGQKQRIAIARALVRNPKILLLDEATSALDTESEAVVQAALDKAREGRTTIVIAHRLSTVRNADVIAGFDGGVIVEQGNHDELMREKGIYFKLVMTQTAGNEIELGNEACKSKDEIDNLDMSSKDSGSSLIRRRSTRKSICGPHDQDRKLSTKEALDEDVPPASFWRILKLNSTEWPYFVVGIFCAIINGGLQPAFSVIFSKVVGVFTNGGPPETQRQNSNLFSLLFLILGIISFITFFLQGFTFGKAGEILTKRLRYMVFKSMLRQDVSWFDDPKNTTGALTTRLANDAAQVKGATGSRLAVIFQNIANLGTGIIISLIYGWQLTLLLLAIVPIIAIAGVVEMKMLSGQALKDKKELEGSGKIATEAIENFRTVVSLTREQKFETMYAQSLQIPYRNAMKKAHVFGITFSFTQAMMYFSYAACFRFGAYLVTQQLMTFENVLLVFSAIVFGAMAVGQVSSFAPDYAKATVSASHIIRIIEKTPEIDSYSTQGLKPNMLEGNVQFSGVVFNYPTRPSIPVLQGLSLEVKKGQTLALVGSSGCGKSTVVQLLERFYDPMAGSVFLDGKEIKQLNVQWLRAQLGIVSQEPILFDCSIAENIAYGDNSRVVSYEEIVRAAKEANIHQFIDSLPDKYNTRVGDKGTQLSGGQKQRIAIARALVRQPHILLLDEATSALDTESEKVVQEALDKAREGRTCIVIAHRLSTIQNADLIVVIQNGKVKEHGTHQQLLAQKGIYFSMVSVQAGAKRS
Assay type: in vitro ADME
Details: LLC-PK1
attribute.measured: Papp A→B at 3.5 h, 1 µM (×10⁻⁶ cm/s)
One number for each entry, in ×10⁻⁶ cm/s.

// worked examples, Papp A→B at 3.5 h, 1 µM included
| molecule | unit.text | measurement |
| --- | --- | --- |
| C[C@@H](Oc1cc(-c2cnn(C3CCNCC3)c2)cnc1N)c1c(Cl)ccc(F)c1Cl [Crizotinib, crizotinib] | ×10⁻⁶ cm/s | 1.2 |
| C[C@H]1O[C@@H](O[C@H]2[C@@H](O)C[C@H](O[C@H]3[C@@H](O)C[C@H](O[C@H]4CC[C@@]5(C)[C@H](CC[C@@H]6[C@@H]5C[C@@H](O)[C@]5(C)[C@@H](C7=CC(=O)OC7)CC[C@]65O)C4)O[C@@H]3C)O[C@@H]2C)C[C@H](O)[C@@H]1O [Digoxin, digoxin] | ×10⁻⁶ cm/s | 1.22 |

Below are some molecules; for each one, tell me its Papp A→B at 3.5 h, 1 µM.
1. O=C(Nc1cnn2ccc(N3CCC[C@@H]3c3cc(F)ccc3F)nc12)N1CC[C@H](O)C1 [Larotrectinib, larotrectinib]
2. CN1CCN(c2ccc(C(=O)Nc3n[nH]c4ccc(Cc5cc(F)cc(F)c5)cc34)c(NC3CCOCC3)c2)CC1 [Entrectinib, entrectinib]

*A*
[0.82, 0.99]

====

Experiment: Brain distribution study following i.v. bolus and i.v. infusion in rats
Conditions: male, Sprague Dawley, rat, in vivo, Measured CSF/Cu,p ratio, 5 h
attribute.measured: Kp at 5 h

The compound `CN1CCN(c2ccc(C(=O)Nc3n[nH]c4ccc(Cc5cc(F)cc(F)c5)cc34)c(NC3CCOCC3)c2)CC1` showed Kp at 5 h equal to 0.25

====

Experiment: Brain distribution study following i.v. bolus and i.v. infusion in rats
Details: male, Sprague Dawley, rat, in vivo, Measured CSF/Cu,p ratio, 6 h
attribute.measured: Kp at 6 h
One number for each entry.

compound `CN1CCN(c2ccc(C(=O)Nc3n[nH]c4ccc(Cc5cc(F)cc(F)c5)cc34)c(NC3CCOCC3)c2)CC1` , Kp at 6 h observed: 0.18

====

Experiment: Single oral-dose in vivo PK study of rats
Details: rat, brain / plasma, po, 20 mg/kg
attribute.measured: Kp
Answers are plain numbers.

Noted for `CN1CCN(c2ccc(C(=O)Nc3n[nH]c4ccc(Cc5cc(F)cc(F)c5)cc34)c(NC3CCOCC3)c2)CC1` : its Kp reads 0.185

====

Assay: Plasma pharmacokinetics in KM12-Luc ITC tumor-bearing mice
Assay type: in vivo, Balb/c nude mice
Conditions: Balb/c nude, mouse, in vivo, po, 60 mg/kg/day
attribute.measured: AUC(0-t) (µM·h)
One number for each entry, in µM·h.

Lab note: `CN1CCN(c2ccc(C(=O)Nc3n[nH]c4ccc(Cc5cc(F)cc(F)c5)cc34)c(NC3CCOCC3)c2)CC1` gave AUC(0-t) of 45.3

====

Assay: Brain distribution study following i.v. bolus and i.v. infusion in rats
Settings: male, Sprague Dawley, rat, in vivo
attribute.measured: Kp at 6 h
One number for each entry.

# Kp at 6 h of `C[C@@H](Oc1cc(-c2cnn(C3CCNCC3)c2)cnc1N)c1c(Cl)ccc(F)c1Cl` = 0.028
